Assay: NF-kB promoter reporter activators, neuronal cells, dose response, cell-based, SH-SY5Y, luciferase (AID 1241)
Settings: fold induction
MEASURED PROPERTY: EC50

Entry `Cc1ccc2nc3cc([N+](=O)[O-])cc([N+](=O)[O-])c3cc2c1` — recorded EC50 = 1190 nM

Entry CCOc1ccc2nc(C(=O)N3CCCC(C)C3)sc2c1 (stereo unspecified) — recorded EC50 = 3300 nM

Entry `O=C(C=C1SCCS1)/C=C/c1ccco1` — recorded EC50 = 781 nM

Entry CCC(=O)NC(c1ccccc1OC)c1ccc2cccnc2c1O (stereo unspecified) — recorded EC50 = 8390 nM

Entry `CC(C)c1ccc(-n2cnn(-c3ncccc3[N+](=O)[O-])c2=O)cc1` — recorded EC50 = 1590 nM

Entry `COc1ccc(Nc2nc(-c3ccccc3)cs2)cc1` — recorded EC50 = 752 nM
